testProtocol: Open field locomotor study in rats: plasma and brain concentrations 4 hrs post dosing
Assay type: in vivo
condition: male, Sprague Dawley, rat, plasma, oral, 3 mg/kg, read-out: Plasma Mean ± Std Dev
Protocol: Male Sprague Dawley rats were ordered from Charles River (225-250 gm upon arrival). They were fed standard chow diet (Purina 5001) and housed 2 per cage. Male C57bl/6j mice were ordered from Charles River at 22-25 g and housed 3 per cage. […] Male SD rats were weighed and transferred to the Activity Chambers with access to water. […] The Activity Chamber monitoring software program was initiated and automatically recorded rat activity in each chamber for a period of 4 hours. […]
metricName: concentration at 4 h (ng/mL)
Express it in ng/mL; write the number only.

Exercise: Name the recorded concentration at 4 h for O=c1cc(NC2CCN(S(=O)(=O)C(F)(F)F)CC2)c2cc(C(c3ccc(Cl)cc3)c3ccc(Cl)cc3)ccc2[nH]1 .
Key: 126

====

studySystem: Human CB2R (Cannabinoid receptor 2) (Homo sapiens (Human), UniProt P34972)
Sequence (P34972 whole entry): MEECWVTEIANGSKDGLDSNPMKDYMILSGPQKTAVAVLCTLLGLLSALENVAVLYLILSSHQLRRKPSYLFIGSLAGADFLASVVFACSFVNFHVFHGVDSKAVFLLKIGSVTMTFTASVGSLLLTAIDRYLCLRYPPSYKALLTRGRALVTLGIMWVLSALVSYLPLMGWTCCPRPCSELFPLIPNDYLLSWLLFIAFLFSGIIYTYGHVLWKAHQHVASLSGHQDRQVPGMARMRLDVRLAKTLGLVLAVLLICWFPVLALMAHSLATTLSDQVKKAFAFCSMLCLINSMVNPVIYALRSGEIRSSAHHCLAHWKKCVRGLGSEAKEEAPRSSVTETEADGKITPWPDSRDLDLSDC
testProtocol: CB-2 in vitro cAMP assay (HTRF), inverse agonism
condition: mean where tested more than once
Mark 1 (yes) for EC50 under 0.8 µM, 0 (no) if at or over.

Reference set (3 entries):
Exercise: Quick check: EC50 of O=c1cc(NCc2ccc(C(F)(F)F)cn2)c2cc(C(c3ccc(Cl)cc3)c3ccc(Cl)cc3)ccc2[nH]1 [Compound 78] under 0.8 µM?
Key: 0 (no)

Exercise: Quick check: EC50 of CCOC(=O)CS(=O)(=O)N1CCC(Nc2cc(=O)[nH]c3ccc(C(c4ccc(Cl)cc4)c4ccc(Cl)cc4)cc23)CC1 [Compound 102] under 0.8 µM?
Key: 0 (no)

Exercise: Quick check: EC50 of O=C(O)c1ccc(C(=O)N2CCC(Nc3cc(=O)[nH]c4ccc(C(c5ccc(Cl)cc5)c5ccc(Cl)cc5)cc34)CC2)cc1 [Compound 116] under 0.8 µM?
Key: 0 (no)

Please turn your attention to the following entry.
Exercise: Quick check: EC50 of O=C(O)c1ccc(CN2CCC(Nc3cc(=O)[nH]c4ccc(C(c5ccc(Cl)cc5)c5ccc(Cl)cc5)cc34)CC2)cc1 [Compound 127] under 0.8 µM?
Key: 0 (no)

====

testProtocol: Chronic DIO Mouse, second study: plasma and brain concentrations
Assay type: in vivo
condition: male, mouse, brain, oral, 3 mg/kg, DIO mice, 3 mg/kg, Day 23, 2 hours post dose; read-out: Brain concentration (Std Dev)
metricName: concentration at 2 h (ng/g)
Express it in ng/g; write the number only.

Exercise: Name the recorded concentration at 2 h for O=c1cc(NC2CCN(S(=O)(=O)C(F)(F)F)CC2)c2cc(C(c3ccc(Cl)cc3)c3ccc(Cl)cc3)ccc2[nH]1 .
Key: 100

====

studySystem: Human CB1R (Cannabinoid receptor 1) (Homo sapiens (Human))
Sequence (P21554 whole entry): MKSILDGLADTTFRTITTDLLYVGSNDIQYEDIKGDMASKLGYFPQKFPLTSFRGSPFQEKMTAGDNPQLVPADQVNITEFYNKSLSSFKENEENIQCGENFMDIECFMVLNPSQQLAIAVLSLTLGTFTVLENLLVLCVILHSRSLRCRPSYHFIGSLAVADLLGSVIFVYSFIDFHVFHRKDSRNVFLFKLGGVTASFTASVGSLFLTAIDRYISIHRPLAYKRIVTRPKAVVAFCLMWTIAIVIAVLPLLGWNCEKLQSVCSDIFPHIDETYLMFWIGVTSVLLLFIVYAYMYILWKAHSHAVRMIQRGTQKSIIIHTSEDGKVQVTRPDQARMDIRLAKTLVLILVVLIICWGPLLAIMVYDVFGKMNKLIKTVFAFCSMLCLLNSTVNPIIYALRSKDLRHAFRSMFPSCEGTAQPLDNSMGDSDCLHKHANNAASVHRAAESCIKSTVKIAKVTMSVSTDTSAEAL
testProtocol: CB-1 in vitro cAMP assay (HTRF), inverse agonism
condition: mean where tested more than once
Text: CB1 and CB2 receptors are Gi-coupled GPCR. Activation of CB1 and CB2 receptors results in a decrease in cAMP production. An inverse agonist of the CB1 or CB2 receptor results in the opposite effect, an increase of cAMP production. The principle of this assay is based on HTRF® technology (Homogeneous Time-Resolved Fluorescence). […] The tracer binding is quantified by a Mab anti-cAMP labeled with Eu3+TBP-NHS Cryptate (supplied as part of the assay kit). […]
metricName: EC50

Illustrative cases are given below, each with its answer.
Exercise: Name the recorded EC50 for CC(C)(C)OC(=O)COc1ccc(Nc2cc(=O)[nH]c3ccc(C(c4ccc(Cl)cc4)c4ccc(Cl)cc4)cc23)cc1 .
Key: 95 nM

Exercise: Name the recorded EC50 for O=c1cc(NC2CCN(S(=O)(=O)c3ccccc3)CC2)c2cc(C(c3ccc(Cl)cc3)c3ccc(Cl)cc3)ccc2[nH]1 .
Key: 14 nM

Exercise: Name the recorded EC50 for O=c1cc(/C=C\c2ccc(C(F)(F)F)cc2)c2cc(C(c3ccc(Cl)cc3)c3cccs3)ccc2[nH]1 (centres unmarked) .
Key: 875 nM

Exercise: Name the recorded EC50 for O=c1cc(/C=C/c2ccccc2)c2cc(C(c3ccc(Cl)cc3)c3ccc(Cl)s3)ccc2[nH]1 (centres unmarked) .
Key: 2280 nM

Exercise: Name the recorded EC50 for CCOC(=O)COc1cc(C(c2ccc(Cl)cc2)c2ccc(Cl)cc2)cc2c(NC3CCN(S(=O)(=O)C(F)(F)F)CC3)cc(=O)[nH]c12 .
Key: 126 nM

Exercise: Name the recorded EC50 for O=c1cc(NCc2ccc(C(F)(F)F)cc2)c2cc(C(c3ccc(Cl)cc3)c3ccc(Cl)cc3)ccc2[nH]1 .
Key: 45 nM

Kindly review the next compound as well.
Exercise: Name the recorded EC50 for O=c1cc(NC2CCC(C(F)(F)F)CC2)c2cc(C(c3ccc(Cl)cc3)c3ccc(Cl)cc3)ccc2[nH]1 (centres unmarked) .
Key: 111 nM
